Cited source: patent US20230000842A1

Kindly supply the reported EC50 values for the records listed here.
- study system: CLK3 kinase (Homo sapiens)
- Sequence (P49761 whole entry): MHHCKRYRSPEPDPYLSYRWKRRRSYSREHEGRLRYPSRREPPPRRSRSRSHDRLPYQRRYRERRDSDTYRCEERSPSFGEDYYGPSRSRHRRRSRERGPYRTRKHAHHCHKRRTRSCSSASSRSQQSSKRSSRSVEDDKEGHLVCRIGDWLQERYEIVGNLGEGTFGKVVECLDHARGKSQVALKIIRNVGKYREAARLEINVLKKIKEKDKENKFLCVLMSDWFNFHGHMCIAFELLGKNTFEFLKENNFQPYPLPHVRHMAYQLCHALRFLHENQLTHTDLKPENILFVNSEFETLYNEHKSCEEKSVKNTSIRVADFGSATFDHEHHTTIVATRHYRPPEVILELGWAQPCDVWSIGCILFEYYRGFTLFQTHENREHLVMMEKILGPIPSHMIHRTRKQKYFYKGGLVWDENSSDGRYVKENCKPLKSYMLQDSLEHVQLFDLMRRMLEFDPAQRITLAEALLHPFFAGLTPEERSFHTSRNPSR
- protocol text: CLK3 kinase activity assay (Z-lyte FRET);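 also: kinase activity read as coumarin/fluorescein emission ratio by FRET, unphosphorylated peptide as 0% and phosphorylated peptide as 100% control, values from non-linear regression of dose-response curves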
- condition parameters: Z-lyte Ser/Thr 18 peptide, 156 μM ATP, 1 h at room temperature
Quick note: give the figure in nM, leave out the unit.

Record CC(C)(C)C(=O)Nc1cncc(-c2ccc3[nH]nc(-c4nc5c(-c6ccc(Cl)s6)cncc5[nH]4)c3n2)c1 ; system CLK3 kinase (Homo sapiens); EC50 = 91

Record c1csc(-c2ccnc3[nH]c(-c4n[nH]c5ccc(-c6cncc(OC7CCNCC7)c6)nc45)cc23)c1 ; system CLK3 kinase (Homo sapiens); EC50 = 1870

Record CN(C)Cc1cncc(-c2cnc3[nH]nc(-c4cc5c(-c6ccccc6F)cncc5[nH]4)c3c2)c1 ; system CLK3 kinase (Homo sapiens); EC50 = 107

Record Cn1ncc(-c2ccc3cnc(NC(=O)[C@H]4CC[C@H](CO)CC4)cc3c2)c1CN1CCCCC1 ; system CLK3 kinase (Homo sapiens); EC50 = 143

Record Nc1cncc(-c2ccc3[nH]nc(-c4cc5cccnc5[nH]4)c3c2)c1 ; system CLK3 kinase (Homo sapiens); EC50 = 73

Record CCCC(=O)Nc1cncc(-c2ccc3[nH]nc(-c4nc5c(-c6ccsc6)cncc5[nH]4)c3n2)c1 ; system CLK3 kinase (Homo sapiens); EC50 = 48

Record Cc1ncc(-c2cnc3[nH]nc(-c4cc5c(-c6ccncc6)cncc5[nH]4)c3c2)n1C ; system CLK3 kinase (Homo sapiens); EC50 = 227
